This collection of values is drawn from patent US12030897B2.

experimental-protocol: Pharmacokinetic properties in mice
Assay type: in vivo
recorded-conditions: female, Balb/c; mouse plasma, IV 2 mg/kg
quantity-kind: AUC(0-inf) (µM·h)

>  <entry-smiles>
Cc1cc(Nc2ncnn3ccc(CN4CCC(N)CC4)c23)ccc1Oc1ccn2ncnc2c1

>  <quantity-kind>
AUC(0-inf)

>  <measured-value>
2.15

$$$$

###

experimental-protocol: Pharmacokinetic properties in rats
Format: in vivo
recorded-conditions: male, SD; rat plasma, PO 50 mg/kg

>  <entry-smiles>
Cc1cc(Nc2ncnn3ccc(CN4CCC(N)CC4)c23)ccc1Oc1ccn2ncnc2c1

>  <AUC(0-t)>
34.3 µM·h

$$$$

###

experimental-protocol: Concentration of Example 4 in plasma, tumor tissue and brain tissue (NCI-N87 model, day 21)
Assay type: in vivo, BALB/c nude mice
recorded-conditions: BALB/c nude, mouse, brain tissue, 100 mg/kg; day 21, 1 h after last administration; read-out: Drug concentration, brain tissue
quantity-kind: concentration at 1 h (nM)

>  <molecule>
Cc1cc(Nc2ncnn3ccc(CN4CCC(N)CC4)c23)ccc1Oc1ccn2ncnc2c1 [Example 4]

>  <measured-value>
631

$$$$
